Just for reference, PubChem BioAssay is where these values come from.

# Protocol: anti-His antibody binders, primary screen, artefact control for SMM control protein annotation, biochemical, small-molecule microarray, 635 nm fluorescence (AID 1128);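 note: score merges feature fluorescence with signal-to-noise for each printed compound spot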
# Reported Conditions: anti-His Alexa647 antibody binding, higher = more signal
Label yes (1) when composite z-score is at or above 2; anything below gets no (0).

Reference set (3 entries):
NC(=O)N1C(=O)C2C(C1=O)C1C=C(CCCO)C2C(c2cccs2)N1Cc1cc2c(cc1Br)OCO2 (stereo unspecified)    yes (1)
COc1ccc([Si](C)(C)[C@@H]2[C@@H](CCn3cc([C@H](O)c4ccccc4)nn3)O[C@]3(C(=O)N(Cc4ccc(N5CCOC5=O)cc4)c4ccccc43)[C@H]2C)cc1    no (0)
CN1C(=O)[C@@]2(CCS(=O)(=O)c3ccccc3)N=C(c3ccc(OCCCO)cc3)O[C@H]2c2ccccc21    yes (1)

Ask: Could you verify whether the entry C=CCOC(=O)[C@@H]1[C@H]2C(=O)O[C@H](c3ccccc3)[C@H](c3ccccc3)N2[C@H](c2ccc(OCCOC(=O)[C@H]3C[C@H]4C(=O)N[C@@H](CC(C)C)C(=O)N4[C@H]3c3ccc(O)cc3)cc2)[C@@]12C(=O)Nc1ccc(I)cc12 shows composite z-score of no less than 2?
Reply: yes (1)

Ask: Could you verify whether the entry COC(=O)c1c(CC[C@@H](CO)NC(=O)N[C@H](Cn2cc(-c3ccccc3C)nn2)C(C)C)oc(C(C)=O)c1C(=O)OC shows composite z-score of no less than 2?
Reply: no (0)

Ask: Could you verify whether the entry CCOC(=O)[C@@H]1[C@@H]2C(=O)N(CC)C(=O)[C@@H]2C[C@@H]1Sc1ccccc1 shows composite z-score of no less than 2?
Reply: no (0)
